Entry source: patent US6284879A

# TESTED TARGET: TAP1/TAP2iso heterodimer (Homo sapiens, UniProt Q03518+Q03519)
# Construct: expressed in transfected cells
# Sequence (Q03519 1-653 isoform Q03519-2 L359K/V379I): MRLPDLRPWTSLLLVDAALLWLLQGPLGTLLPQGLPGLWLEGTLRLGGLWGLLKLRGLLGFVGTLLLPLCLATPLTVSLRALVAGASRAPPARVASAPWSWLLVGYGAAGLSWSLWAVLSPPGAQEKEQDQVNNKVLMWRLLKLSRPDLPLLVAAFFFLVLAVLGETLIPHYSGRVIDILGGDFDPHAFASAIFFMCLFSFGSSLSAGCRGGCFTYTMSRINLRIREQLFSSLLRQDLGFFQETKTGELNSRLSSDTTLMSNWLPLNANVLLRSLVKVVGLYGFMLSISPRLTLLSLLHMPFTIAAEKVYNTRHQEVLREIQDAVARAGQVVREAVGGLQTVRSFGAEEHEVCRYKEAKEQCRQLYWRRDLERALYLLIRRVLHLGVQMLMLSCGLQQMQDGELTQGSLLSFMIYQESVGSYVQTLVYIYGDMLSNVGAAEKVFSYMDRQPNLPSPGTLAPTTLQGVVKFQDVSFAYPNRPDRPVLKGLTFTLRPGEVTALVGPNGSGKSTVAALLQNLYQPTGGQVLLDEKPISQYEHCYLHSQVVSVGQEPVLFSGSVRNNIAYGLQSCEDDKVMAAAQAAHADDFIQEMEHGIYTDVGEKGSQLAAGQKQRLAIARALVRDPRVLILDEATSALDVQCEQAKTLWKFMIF
# Sequence (Q03518 1-748): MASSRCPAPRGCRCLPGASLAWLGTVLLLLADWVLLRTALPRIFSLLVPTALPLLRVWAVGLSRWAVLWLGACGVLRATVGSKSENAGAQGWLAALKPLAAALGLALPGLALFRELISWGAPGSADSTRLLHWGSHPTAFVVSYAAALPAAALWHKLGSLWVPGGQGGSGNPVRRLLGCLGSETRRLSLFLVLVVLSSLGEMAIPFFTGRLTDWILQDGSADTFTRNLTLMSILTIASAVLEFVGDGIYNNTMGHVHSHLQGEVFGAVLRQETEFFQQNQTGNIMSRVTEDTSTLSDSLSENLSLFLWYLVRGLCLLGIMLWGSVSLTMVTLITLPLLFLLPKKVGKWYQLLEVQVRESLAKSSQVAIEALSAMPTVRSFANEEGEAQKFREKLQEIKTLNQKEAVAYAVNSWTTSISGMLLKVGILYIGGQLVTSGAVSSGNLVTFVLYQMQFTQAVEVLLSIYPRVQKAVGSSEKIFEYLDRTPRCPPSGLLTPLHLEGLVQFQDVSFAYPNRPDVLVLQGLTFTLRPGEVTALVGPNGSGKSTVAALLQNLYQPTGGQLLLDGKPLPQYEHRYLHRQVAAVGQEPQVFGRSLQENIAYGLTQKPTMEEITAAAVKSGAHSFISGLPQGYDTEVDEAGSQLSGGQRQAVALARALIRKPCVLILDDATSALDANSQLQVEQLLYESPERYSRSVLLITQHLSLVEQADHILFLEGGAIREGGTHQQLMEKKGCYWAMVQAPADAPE
# TEST DESCRIPTION: competition with transport of 125I-Peptide RRYQNSTEL in TAP1/TAP2iso transfectants
# Format: cell-based
# TEST SETTINGS: unlabeled peptide against transport of 125I-Peptide RRYQNSTEL; TAP1/TAP2iso transfectants; read-out: median inhibitory concentration (IC50)
PROPERTY NAME: IC50

Problem: Quick one: IC50 for RRYQNSTEL [Peptide RRYQNSTEL] ?
Solution: ~150 nM
